Test: chemical genetic growth profiling, strain panel (AID 1159580);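 further: tested at 20 µM; growth read once vehicle control cultures reached saturation at 30 °C; 1 = growth at the plate median or of vehicle wells; lower values mean less growth of the strain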
Conditions: S. cerevisiae deletion strains, growth OD, locus YIL066C, strain RNR3, hits give low values
In all, about 5,500 compounds went through this assay and about 2,000 (36%) were called active. Another 18% or so got no clear call; they are omitted. Some of the results follow.
// reported normalized growth for each item listed
Lab note: jot down the number only; don't add units.

Completed entries (count: 8):
COc1ccc([C@H]2COc3c(ccc(O)c3OC)C2)c(OC)c1O: 0.975
CC(=O)Oc1cc2c(c(C)c1OC(C)=O)CC1OC13C2(C)CCC1(C)C2CC(C)(C(=O)O)CCC2(C)CCC13C (centres undefined): 0.998
CCOC([O-])=Nc1c[n+](N2CCOCC2)no1: 1.01
CC(=O)OCC(=O)[C@@]1(O)CCC2C3CCC4=CC(=O)CC[C@]4(C)C3[C@@H](O)C[C@@]21C (some centres undefined): 1.01
C1CCC(C(CC2CCCCN2)C2CCCCC2)CC1 (centres undefined): 0.504
C#C[C@]1(O)CCC2C3CCC4=Cc5oncc5C[C@]4(C)C3CC[C@@]21C (some centres undefined): 0.785
c1ccc([C@H]2CN3CCSC3=N2)cc1: 1.02
CC1=C(O)C(=O)C=C2C1=CC=C1[C@@]2(C)CC[C@@]2(C)[C@@H]3C[C@](C)(C(=O)O)CC[C@]3(C)CC[C@]12C: 0.308

Please examine the following record next.
Q. Consider the molecule shown here: C[C@]12CCC(=O)C=C1CCC1C2[C@@H](O)C[C@@]2(C)C1CC[C@]2(O)C(=O)COC(=O)CCC(=O)O (some centres undefined) What is its recorded normalized growth?
A. 1.01
